- Tested on: human CD33
- assayNotes: Biacore SPR binding kinetics of anti-CD33 scFv-Fc clones with or without 10 µM MTX
- measurementSetup: CD33; 0 µM MTX; 37° C., pH 7.4; scFv-Fc
readoutType: kon, kinetics toward antigen with 0 µM MTX (M⁻¹ s⁻¹)

molecule	number
P01_A09: anti-CD33 clone with conditional affinity; VH SEQ ID NO: 3, VL SEQ ID NO: 4; tested as scFv-Fc (antibody, V domains shown) VH: QVQLVESGGGLVQAGGSLRLSCAASRRSSRSWAMHWVRQAPGKGLEWVAVISYDGRLKYYADSVKGRFTISRDNAEYLVYLQMNSLRAEDTAVYYCAAERPTSDGSTGGMDVWGQGTLVTVSS VL: DIQMTQSPSSLSASVGDRVTITCRASQSISSYLNWYQQKPGKAPKLLIYGASTLQSGVPSRFSGSGSGTDFTLTISSLQPEDFATYYCQQSYSSGTFGQGTKVEIK	110000
P02_H01: anti-CD33 clone with conditional affinity; VH SEQ ID NO: 17, VL SEQ ID NO: 18 (antibody, V domains shown, Synthetic Antibody) VH: QVQLVESGGGLVQAGGSLRLSCAASRRSSRSWAMHWVRQAPGKGLEWVAVISYDGRLKYYADSVKGRFTISRDNAEYLVYLQMNSLRAEDTAVYYCAAGSGGGDGLDVWGQGTLVTVSS VL: DIQMTQSPSSLSASVGDRVTITCRASQTISSYLNWYQQKPGKAPKLLIYSSSTLQGGVPSRFSGSGSGTDFTLTISSLQPEDFATYYCQQSYSSGTFGQGTKVEIK	28000
P08_C08: anti-CD33 clone with conditional affinity; VH SEQ ID NO: 27, VL SEQ ID NO: 28 (antibody, V domains shown, Synthetic Antibody) VH: QVQLVESGGGLVQAGGSLRLSCAASRRSSRSWAMHWVRQAPGKGLEWVAVISYDGRLKYYADSVKGRFTISRDNAEYLVYLQMNSLRAEDTAVYYCAAEGSGSTDGSGAIDVWGQGTLVTVSS VL: DIQMTQSPSSLSASVGDRVTITCRASQSIGSYLNWYQQKPGKAPKLLIYAASSLQSGVPSRFSGSGSGTDFTLTISSLQPEDFATYYCQQSYSSGSFGQGTKVEIK	63000
P02_C02: anti-CD33 reference clone, less than 2-fold MTX effect; VH SEQ ID NO: 11, VL SEQ ID NO: 12 (antibody, V domains shown, Synthetic Antibody) VH: QVQLVESGGGLVQAGGSLRLSCAASRRSSRSWAMHWVRQAPGKGLEWVAVISYDGRLKYYADSVKGRFTISRDNAEYLVYLQMNSLRAEDTAVYYCAAEGGMGLDPWGQGTLVTVSS VL: DIQMTQSPSSLSASVGDRVTITCRASQTISSYLNWYQQKPGKAPKLLIYAASNLHSGVPSRFSGSGSGTDFTLTISSLQPEDFATYYCQQSYSSGTFGQGTKVEIK	92000
P03_A01: anti-CD33 clone with conditional affinity; VH SEQ ID NO: 19, VL SEQ ID NO: 20; also as scFv in CAR (antibody, V domains shown, Synthetic Antibody, also as scFv in CAR) VH: QVQLVESGGGLVQAGGSLRLSCAASRRSSRSWAMHWVRQAPGKGLEWVAVISYDGRLKYYADSVKGRFTISRDNAEYLVYLQMNSLRAEDTAVYYCAAETGSVGLDYWGQGTLVTVSS VL: DIQMTQSPSSLSASVGDRVTITCRASQGISTYLNWYQQKPGKAPKLLIYGATSLESGVPSRFSGSGSGTDFTLTISSLQPEDFATYYCQQGYSQGTFGQGTKVEIK	50000
P04_C05: anti-CD33 clone with conditional affinity; VH SEQ ID NO: 41, VL SEQ ID NO: 42 (antibody, V domains shown, Synthetic Antibody) VH: QVQLVESGGGLVQAGGSLRLSCAASRRSSRSWAMHWVRQAPGKGLEWVAVISYDGRLKYYADSVKGRFTISRDNAEYLVYLQMNSLRAEDTAVYYCAAGLPWTDYWGQGTLVTVSS VL: QSVLTQPPSASGTPGQRVTISCSGSNSNIGSNYVSWYQQLPGTAPKLLIYSNNQRPSGVPDRFSGSKSGTSASLAISGLRSEDEADYYCAAWDDRLSVVFGTGTKLTVL	83000
P02_A10: anti-CD33 clone with conditional affinity; VH SEQ ID NO: 9, VL SEQ ID NO: 10 (antibody, V domains shown, Synthetic Antibody) VH: QVQLVESGGGLVQAGGSLRLSCAASRRSSRSWAMHWVRQAPGKGLEWVAVISYDGRLKYYADSVKGRFTISRDNAEYLVYLQMNSLRAEDTAVYYCAAESEWDTGGFDVWGQGTLVTVSS VL: DIQMTQSPSSLSASVGDRVTITCRASQSIGSYLNWYQQKPGKAPKLLIYSSSNLQSGVPSRFSGSGSGTDFTLTISSLQPEDFATYYCQQSYTSGTFGQGTKVEIK	84000
P03_G12: anti-CD33 clone with conditional affinity; VH SEQ ID NO: 21, VL SEQ ID NO: 22 (antibody, V domains shown, Synthetic Antibody) VH: QVQLVESGGGLVQAGGSLRLSCAASRRSSRSWAMHWVRQAPGKGLEWVAVISYDGRLKYYADSVKGRFTISRDNAEYLVYLQMNSLRAEDTAVYYCAADPTEGWSYLDYWGQGTLVTVSS VL: DIQMTQSPSSLSASVGDRVTITCRASQGISSYLNWYQQKPGKAPKLLIYGASRLQSGVPSRFSGSGSGTDFTLTISSLQPEDFATYYCQQGYSSGTFGQGTKVEIK	71000
